biological target: progesterone receptor PR (PR-B) (Homo sapiens); assay: Transactivation assay, antagonism on the progesterone receptor PR; conditions: transactivation test for antagonistic activity on (PR-B)
Can you tell me pIC50 for the items I'm about to list?
// pIC50: -log10(molar conc.)

Prompt: // lookup pIC50 for Cc1noc(=O)c2ccc(NC(=O)C(O)(Cc3ccccc3)c3ccc(-c4cccs4)cc3)cc12 (racemic)
Response: 7.40

Prompt: One more molecule: Cc1noc(=O)c2ccc(NC(=O)C(O)(Cc3ccccc3)c3cccs3)cc12 (racemic) [Example 64b]
Response: 8.05

Prompt: One more molecule: Cc1noc(=O)c2ccc(NC(=O)C(O)(Cc3ccccc3)c3ccc([N+](=O)[O-])cc3)cc12 (racemic)
Response: 8.30

Prompt: What do you have for Cc1noc(=O)c2ccc(NC(=O)C(O)(Cc3ccccc3)c3ccccc3)cc12 (racemic) ?
Response: 8.30

====

biological target: progesterone receptor PR (PR-B) (Homo sapiens, UniProt P06401); test: Transactivation assay, antagonism on the progesterone receptor PR; settings: transactivation test for antagonistic activity on (PR-B)
Sequence (P06401 whole entry): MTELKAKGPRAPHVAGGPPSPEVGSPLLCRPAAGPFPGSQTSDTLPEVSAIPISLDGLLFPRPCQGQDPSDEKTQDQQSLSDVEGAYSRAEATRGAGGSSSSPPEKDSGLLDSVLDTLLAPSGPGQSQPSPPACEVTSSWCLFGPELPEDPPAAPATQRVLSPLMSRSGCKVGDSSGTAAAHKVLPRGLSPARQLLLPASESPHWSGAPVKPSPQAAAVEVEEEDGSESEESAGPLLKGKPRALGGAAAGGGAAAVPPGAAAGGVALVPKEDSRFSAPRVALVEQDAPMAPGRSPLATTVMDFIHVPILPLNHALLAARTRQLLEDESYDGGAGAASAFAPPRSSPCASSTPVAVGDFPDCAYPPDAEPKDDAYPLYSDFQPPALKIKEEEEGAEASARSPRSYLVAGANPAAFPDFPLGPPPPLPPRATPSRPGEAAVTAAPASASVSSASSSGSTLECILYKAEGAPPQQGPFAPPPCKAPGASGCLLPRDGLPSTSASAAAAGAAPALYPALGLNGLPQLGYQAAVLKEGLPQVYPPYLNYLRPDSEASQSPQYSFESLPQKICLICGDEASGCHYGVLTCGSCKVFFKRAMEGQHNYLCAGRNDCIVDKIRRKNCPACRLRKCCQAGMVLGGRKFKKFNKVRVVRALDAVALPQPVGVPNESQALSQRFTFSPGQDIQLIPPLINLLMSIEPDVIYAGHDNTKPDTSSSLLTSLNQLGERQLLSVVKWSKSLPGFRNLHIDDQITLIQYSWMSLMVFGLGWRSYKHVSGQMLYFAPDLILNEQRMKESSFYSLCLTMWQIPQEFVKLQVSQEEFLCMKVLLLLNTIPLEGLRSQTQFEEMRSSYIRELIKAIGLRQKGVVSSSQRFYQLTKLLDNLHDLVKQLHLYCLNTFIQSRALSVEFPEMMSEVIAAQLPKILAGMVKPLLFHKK
READOUT NAME: IC50 (nM)
Answer with a number only, understood to be in nM.

Prompt: Recorded IC50 for CC(=O)c1ccc(C(O)(Cc2ccccc2)C(=O)Nc2ccc3c(=O)onc(C)c3c2)cc1 (racemic) [Example 55f] , please?
Response: 32

Prompt: Query Cc1noc(=O)c2ccc(NC(=O)C(O)(Cc3ccccc3)c3ccc(N(C)C)cc3)cc12 (racemic) [Example 48d] next
Response: 50

Prompt: Entry to check: COc1ccc(C#CC(O)(C(=O)Nc2ccc(C#N)c(Cl)c2)c2ccccc2)cc1 (racemic)
Response: 40

Prompt: Queued: Cc1noc(=O)c2ccc(NC(=O)C(O)(C#Cc3ccccc3)c3ccccc3)cc12 (racemic)
Response: 30

Prompt: Item: N#Cc1ccc(NC(=O)C(O)(Cc2ccccc2)c2ccccc2)cc1C(F)(F)F (racemic) [Example 34b]
Response: 71

Prompt: Then this molecule: N#Cc1ccc(NC(=O)C(O)(Cc2ccccc2)c2ccccc2)cc1Cl (racemic) [Example 29b]
Response: 40

Prompt: Follow-up item: Cc1noc(=O)c2ccc(NC(=O)C(O)(Cc3ccccc3)c3ccc(C(C)(C)C)cc3)cc12 (racemic) [Example 45c]
Response: 3.2
